Test system: HCC 2998
Test: NCI tumour cell line growth inhibition, 48 h
The source made the active and inactive calls. Cut-off read from the data, not from the text of the source: active = GI50 up to about 1.1 µM and inactive = higher.
The reply should name one outcome from active, inactive

Solved entries:
>>> class("NC(=O)c1ccc([N+](=O)[O-])cc1")
"inactive"
>>> class("CC(=O)NNc1nc(C)c(C(=O)/C=C/c2ccccc2Cl)s1")
"inactive"
>>> class("COc1cc(C2c3cc4c(cc3OC(O)C2C)OCO4)cc(OC)c1OC (stereo unspecified)")
"active"
>>> class("O=C1c2ccccc2C2=Nc3ccncc3CN12")
"inactive"
>>> class("CC1=CC[C@H](C)C(C)(C)C1/C=C/C(C)=C/CC[C@@]1(CO)[C@H](CCCO)/C(=C(/C)C=O)CC[C@]1(C)O (stereo partly specified)")
"inactive"
>>> class("COc1ccc(OC)c2c1C(=O)C1CC1(Br)C2=O (stereo unspecified)")
"inactive"
>>> class("COc1ccc(COCC(Cn2ccnc2)OCc2ccc(C(=O)O)cc2)cc1 (stereo unspecified)")
"inactive"
>>> class("COC(=O)C1Cc2c([nH]c3ccccc23)C(c2ccccc2O)N1Cc1ccccc1 (stereo unspecified)")
"inactive"
>>> class("O=C1C(O)=C(CCCc2ccc(Oc3ccccc3)cc2)C(=O)c2ccccc21")
"inactive"
>>> class("Cc1cccc(C(O)c2cccnc2)c1O (stereo unspecified)")
"inactive"

Let's switch to this molecule now.
Q) In this assay, the call recorded for C[C@]12CCCC(=O)C1(O)C[C@H](C(=O)O)CC2 (stereo partly specified) was what?
A) inactive

----------
System: SF-268
Experiment: NCI tumour cell line growth inhibition, 48 h
Activity calls are given as the source filed them. Rule as the data show it: active = GI50 up to about 1.1 µM and inactive = higher.
The reply should name one outcome from active, inactive

Solved entries:
>>> class("CCCCCCCCCc1cc(=O)c2ccc(OCc3ccccc3)cc2o1")
"inactive"
>>> class("CCCCOC(=O)C1CC[C@H]2[C@@H]3CCc4cc(OC(=O)c5cccc6c(=O)c7ccccc7[nH]c56)ccc4[C@H]3CC[C@]12C (some centres undefined)")
"inactive"
>>> class("CCCCC1CC(c2ccc(Cl)cc2)=NO1 (centres undefined)")
"inactive"

Q) In this assay, the call recorded for C=CCc1ccccc1C1CC2(C(=O)OC)OC1C(C(=O)OC)=C2C(=O)OC (centres undefined) was what?
A) inactive

Q) In this assay, the call recorded for O=C(Cn1c2ccc(Br)cc2c2nc3ccccc3nc21)NCc1ccccc1 was what?
A) inactive

Q) In this assay, the call recorded for Oc1ccc(Nc2nc(Cl)c3nc[nH]c3n2)cc1 was what?
A) inactive

Q) In this assay, the call recorded for COc1cc(/C=C2\C[C@H]3[C@@H]4CC=C5C=C(N6CCCC6)CC[C@]5(C)[C@H]4CC[C@]3(C)C2=O)cc(OC)c1OC was what?
A) inactive

Q) In this assay, the call recorded for COc1ccc(C[n+]2cccc(O)c2)cc1 was what?
A) inactive

Q) In this assay, the call recorded for Cc1cc2[nH]c3c(C#N)c(-c4ccccc4)c(CN4CCOCC4)c(=O)n3c2cc1C was what?
A) inactive

Q) In this assay, the call recorded for CC1(C)S[C@@H]2[C@H](NC(=O)/C=C/c3ccccc3)C(=O)N2[C@H]1C(=O)O was what?
A) inactive

----------
Tested on: A498
Assay: NCI tumour cell line growth inhibition, 48 h
The source made the active and inactive calls. Cut-off read from the data, not from the text of the source: active = GI50 up to about 1.1 µM and inactive = higher.
The reply should name one outcome from active, inactive

Solved entries:
>>> class("CCOC(=O)C1=C(C)NC(C)=C(C(=O)OCCNC(=O)c2ccc(N=[N+]=[N-])cc2)C1c1ccccc1C(F)(F)F (configuration not stated)")
"inactive"
>>> class("CC1=CC2=C(C(N)=O)C(=O)OC2(C)C(c2ccccc2)C1 (configuration not stated)")
"inactive"
>>> class("O=c1n(CCCN2CCOCC2)nc2n1-c1ccc3ccccc3c1SC2")
"inactive"
>>> class("Cc1c2cc[n+](C)cc2c(C)c2c1[nH]c1ccc(OC(C)C)cc12")
"inactive"
>>> class("COc1cc(/C=C2\\C[C@H]3[C@@H]4CC=C5C=C(N6CCCC6)CC[C@]5(C)[C@H]4CC[C@]3(C)C2=O)cc(OC)c1OC")
"inactive"
>>> class("C[C@]12CCCC(=O)C1(O)C[C@H](C(=O)O)CC2 (some centres not stated)")
"inactive"

Q) In this assay, the call recorded for Oc1c(C(O)(c2ccccc2)c2ccc3ccccc3c2O)ccc2ccccc12 was what?
A) inactive

Q) In this assay, the call recorded for COc1cc2c(c(OC)c1OC)-c1cccc(=O)cc1C(NC(C)=O)CC2 (configuration not stated) was what?
A) active

Q) In this assay, the call recorded for O=C(NNC(=O)c1ccncc1)C(=O)Nc1cc(Cl)c(Cl)cc1Cl was what?
A) inactive

Q) In this assay, the call recorded for CC(=O)c1c(C)n(C)c2c1nnc1ccccc12 was what?
A) inactive

Q) In this assay, the call recorded for C=CC(=O)N1C/C(=C\c2ccc(N(C)C)cc2)C(=O)/C(=C/c2ccc(N(C)C)cc2)C1 was what?
A) inactive

Q) In this assay, the call recorded for CC(=O)OCC1OC(n2c(C)cc(C)c(C#N)c2=S)C(OC(C)=O)C(OC(C)=O)C1OC(C)=O (configuration not stated) was what?
A) inactive

----------
Tested on: HL-60
Assay: NCI tumour cell line growth inhibition, 48 h
Activity calls are given as the source filed them. Cut-off read from the data, not from the text of the source: active = GI50 up to about 1.1 µM and inactive = higher.
The reply should name one outcome from 1 = active, 0 = inactive

Q) In this assay, the call recorded for COc1cccc2c1C(=O)c1c(O)c3c(c(O)c1C2=O)C[C@@](O)(C(C)=O)C[C@@H]3OC1CC(O)C(O)C(C)O1 (stereo not given in full) was what?
A) 1

Q) In this assay, the call recorded for N#Cc1nc(/C=C/c2nc(C#N)c(N)o2)oc1N was what?
A) 0

Q) In this assay, the call recorded for CN(CCCNC(=O)c1nn(-c2ccc(Cl)cc2Cl)c2c1ccc1ccccc12)CCCNC(=O)c1nn(-c2ccc(Cl)cc2Cl)c2c1ccc1ccccc12 was what?
A) 1

Q) In this assay, the call recorded for COc1ccccc1N1C(=O)CS(=O)(=O)C1c1cccc(Oc2ccccc2)c1 (stereo not given) was what?
A) 0

Q) In this assay, the call recorded for C=CCCCN1C(=O)C2C3c4ccccc4C(C=O)(c4ccccc43)C2C1=O (stereo not given) was what?
A) 0

Q) In this assay, the call recorded for COCCN1C2=CCCCC2=Nc2c(N)nc(N)nc21 was what?
A) 0

Q) In this assay, the call recorded for CN(C)CCNC(=O)c1c2ccccc2cc2ccccc12 was what?
A) 0

Q) In this assay, the call recorded for C/C=C1\CNC1C(=O)O (stereo not given) was what?
A) 0

Q) In this assay, the call recorded for c1ccc2c(c1)CCc1c(-c3ccncc3)n[nH]c1-2 was what?
A) 0

Q) In this assay, the call recorded for c1ccc(C2=NN(c3ccccc3)C3(S2)SC(c2ccccc2)(c2ccccc2)c2ccccc23)cc1 (stereo not given) was what?
A) 1

Q) In this assay, the call recorded for CC(C)(CN1CCCCC1)C(/C=C/c1ccccc1)=N\NC(=O)N/N=C(/C=C/c1ccccc1)C(C)(C)CN1CCCCC1 was what?
A) 1

----------
Test system: SK-OV-3
Assay: NCI tumour cell line growth inhibition, 48 h
Activity calls are given as the source filed them. Rule as the data show it: active = GI50 up to about 1.1 µM and inactive = higher.
The reply should name one outcome from active, inactive

Solved entries:
>>> class("Clc1nc2c(N3CCCC3)nc(N3CCNCC3)nc2[nH]1")
"inactive"
>>> class("CN1CCN(CN2C(=O)C3C4C=CC(C3C2=O)C2C(=O)N(CN3CCN(C)CC3)C(=O)C42)CC1 (stereo unspecified)")
"inactive"

Q) In this assay, the call recorded for O=C1c2ccccc2C(=O)c2c(NCCCNCCO)ccc(NCCCNCCO)c21 was what?
A) inactive

Q) In this assay, the call recorded for COC(=O)C(=O)C(C#N)c1ccc(Cl)c(Cl)c1 (stereo unspecified) was what?
A) inactive

Q) In this assay, the call recorded for O/N=C1/Nc2ccccc2C(=S)N2CSCC12 (stereo unspecified) was what?
A) inactive

Q) In this assay, the call recorded for CCCC(=O)OC(OC(=O)CCC)c1ccc([N+](=O)[O-])o1 was what?
A) inactive

Q) In this assay, the call recorded for COc1ccc(-c2c3ccccc3c(-c3ccc(OCCBr)cc3)c3ccccc23)cc1 was what?
A) inactive

Q) In this assay, the call recorded for COc1cc(C2c3cc4c(cc3OC(O)C2C)OCO4)cc(OC)c1OC (stereo unspecified) was what?
A) active

Q) In this assay, the call recorded for C=CCSSCC=C was what?
A) inactive

Q) In this assay, the call recorded for Cc1ccc2c(c1)NC(=O)CCSSCCC(=O)N2 was what?
A) inactive

Q) In this assay, the call recorded for c1cc2[se][se]c3c4cccc5[se][se]c(c(c1)c23)c54 was what?
A) inactive

----------
System: HCC 2998
Experiment: NCI tumour cell line growth inhibition, 48 h
The source made the active and inactive calls. No stated cut-off is given here; in the data, active = GI50 up to about 1.1 µM and inactive = higher.
Give GI50 for every item shown.

Previously resolved entries follow.
>>> reading("COC(=O)C1Cc2c(OC)ccc(OC)c2CC(C(=O)OC)C1=O (stereo unspecified)")
"> 100 µM (inactive)"
>>> reading("Cc1cc(S(=O)(=O)Nc2nc3ccccc3c(=O)n2N)c(S)cc1Cl")
"49.3 µM (inactive)"
>>> reading("CCOC(=O)Cc1ccc(Nc2nc3cc(F)c(F)cc3nc2C(=O)OCC)cc1")
"25.6 µM (inactive)"
>>> reading("Oc1c(C(O)(c2ccccc2)c2ccc3ccccc3c2O)ccc2ccccc12")
"6.87 µM (inactive)"
>>> reading("CN(C)CCNC(=O)c1c2ccccc2cc2ccccc12")
"32.7 µM (inactive)"

Look up GI50 for the entries below, preserving their order.
1. COc1ccccc1NC(=O)C1=C(C)NC(C)=C(C(=O)Nc2ccccc2OC)C1/C=C/c1ccccc1
2. Cc1csc(-n2nc(C)cc2C)n1
3. CCn1ncc(N=O)c1N
4. C=C1C(=O)OC2/C=C(\C)C3OC3/C=C(/C(=O)OC)C(O)C(OC(=O)C3(C)OC3C)C12 (stereo unspecified)
5. C=C1CCC2C(C)(CO)C(O)CCC2(C)C1C/C=C1\C(=O)OCC1O (stereo unspecified)
6. O=C(O)C1=C(C(=O)Nc2ccccc2)C2C=CC1C2 (stereo unspecified)

A)
1: > 100 µM (inactive); 2: > 100 µM (inactive); 3: 56.2 µM (inactive); 4: 1.9 µM (inactive); 5: 22.5 µM (inactive); 6: > 100 µM (inactive)
